Measured MIC accompanies every entry in the list below.
- Test system: Bacillus subtilis
- assay-method-text: Antibacterial activity against Bacillus subtilis ATCC 6633 by broth microdilution method
- Format: functional

Recorded results for 6 compounds are shown here.
CC(C)(C)CC(=O)N1CCN(c2cc3c(cc2F)c(=O)c(C(=O)O)cn3C2CC2)CC1 :: < 0.05 µM
O=C(O)c1cn(C2CC2)c2cc(N3CCNCC3)c(F)cc2c1=O [CIPROFLOXACIN] :: 0.03 µM
CC1=CC(=O)C(C(C)(C)CC(=O)N2CCN(c3cc4c(cc3F)c(=O)c(C(=O)O)cn4C3CC3)CC2)=C(C)C1=O :: < 0.05 µM
CC1=C(N)C(=O)C(C(C)(C)CC(=O)N2CCN(c3cc4c(cc3F)c(=O)c(C(=O)O)cn4C3CC3)CC2)=C(C)C1=O :: < 0.05 µM
CC(C)(C)OC(=O)N1CCN(c2cc3c(cc2F)c(=O)c(C(=O)O)cn3C2CC2)CC1 :: < 0.05 µM
CC1=CC(=O)C(C(C)(C)CC(=O)O)=C(C)C1=O :: 50 µM

We next turn to a different compound, shown below.
For reference, reported MIC for CC1=C(Br)C(=O)C(C(C)(C)CC(=O)N2CCN(c3cc4c(cc3F)c(=O)c(C(=O)O)cn4C3CC3)CC2)=C(C)C1=O stands at < 0.05 µM

----------
- Tested on: Pseudomonas aeruginosa
- assay-method-text: Antibacterial activity against Pseudomonas aeruginosa K799/61 at 0.1 mM incubated for 24 hrs at 37 degC by agar diffusion assay
- Format: functional
- condition-parameters: K799/61, 24 h, read-out: DIZ
Measured zone of inhibition at 100 µM accompanies every entry in the list below.
Answer format: numeric, mm implied, no suffix.

Recorded results for 4 compounds are shown here.
CC1=CC(=O)C(C(C)(C)CC(=O)O)=C(C)C1=O :: 0
CC1=CC(=O)C(C(C)(C)CC(=O)N2CCN(c3cc4c(cc3F)c(=O)c(C(=O)O)cn4C3CC3)CC2)=C(C)C1=O :: 35
CC1=C(N)C(=O)C(C(C)(C)CC(=O)N2CCN(c3cc4c(cc3F)c(=O)c(C(=O)O)cn4C3CC3)CC2)=C(C)C1=O :: 31
CC1=C(N)C(=O)C(C(C)(C)CC(=O)O)=C(C)C1=O :: 0

For reference, reported zone of inhibition at 100 µM for CC1=C(Br)C(=O)C(C(C)(C)CC(=O)N2CCN(c3cc4c(cc3F)c(=O)c(C(=O)O)cn4C3CC3)CC2)=C(C)C1=O stands at 29

----------
Measured MIC accompanies every entry in the list below.
- Tested on: Escherichia coli
- assay-method-text: Antibacterial activity against Escherichia coli DC0 by broth microdilution method
- Type: functional

CC(C)(C)OC(=O)N1CCN(c2cc3c(cc2F)c(=O)c(C(=O)O)cn3C2CC2)CC1 :: > 100 µM
CC(C)(C)CC(=O)N1CCN(c2cc3c(cc2F)c(=O)c(C(=O)O)cn3C2CC2)CC1 :: > 100 µM

For reference, reported MIC for CC1=CC(=O)C(C(C)(C)CC(=O)O)=C(C)C1=O stands at > 100 µM
